Source: patent US20130266566A1

Target: T1, rat PAI-1 (rat, UniProt P20961 24-402)
T1 sequence: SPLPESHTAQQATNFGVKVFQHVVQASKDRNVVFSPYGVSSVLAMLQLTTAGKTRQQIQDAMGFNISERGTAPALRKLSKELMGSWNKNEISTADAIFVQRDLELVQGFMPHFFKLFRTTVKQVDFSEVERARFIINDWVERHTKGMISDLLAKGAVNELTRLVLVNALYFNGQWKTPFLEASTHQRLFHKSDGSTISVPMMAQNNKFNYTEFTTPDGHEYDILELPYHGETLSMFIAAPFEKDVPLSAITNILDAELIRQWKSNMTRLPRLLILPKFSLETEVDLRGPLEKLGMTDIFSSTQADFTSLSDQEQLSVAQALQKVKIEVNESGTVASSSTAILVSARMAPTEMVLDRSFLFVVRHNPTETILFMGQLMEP
Assay: cell-based or functional assay
Measured property: HT-1080 Exo PAI-1 (IC50 in nM) rat
Supply the numeric figure in nM, leaving out any unit text.

Use these answered entries as a reference point.
Antibody 14 scFv (scFv) QVQLQQSGAEVKKPGSSVKVSCKASGGTFSSYAISWVRQAPGQGLEWMGGIIPTFGTANYAQKFQGRVTITADESTSTAYMELSGLRSEDTAVYYCAREKRQWLEGHFDYWGRGTLVTVSSDIQMTQSPSFLSASIGDRVTITCRASEGIYHNLAWYQQKPGKAPKLLIYRASSLASGAPSRFSGSGSGTDFTFTISSLQPDDFATYYCQQYSNYPLTFGGGTKLEIK; 52
Antibody 27 scFv (scFv) QVQLQQSGAEVKKPGSSVKVSCKASGGAFSSYAISWVRQAPGQGLEWMGGIIPTFGTANYAQKFQGRVTITADESTSTAYMELSGLRSEDTAVYYCAREKRQWLEGHFDYWGRGTPVTVSSDIQMTQSPSFLSASIGDRVTITCRASEGIYHNLAWYQQKPGKAPKLLIYRASSLASGAPSRFSGSGSGTDFTLTISSLQPDDFATYYCQQYSNYPLTFGGGTKLEIK; 33.8

Continue with the next binder.
IN: Recorded HT-1080 Exo PAI-1 (IC50 in nM) rat for Antibody 15 scFv (scFv) QVQLQQSGAEVKKPGSSVKVSCKASGGTFSSYAISWVRQAPGQGLEWMGGIIPTFGTANYAQKFQGRVTITADESTSTAYMELSGLRSEDTAVYYCAREKRQWLEGHFDYWGRGTPVTVSSDIQMAQSPSFLSASIGDRVTITCRASEGIYHNLAWYQQKPGKAPKLLIYRASSLASGAPSRFSGSGSGTDFTLTISSLQPDDFATYYCQQYSNYPLTFGGGTKLEIR , please?
OUT: 57
